Just for reference, ChEMBL document CHEMBL2440111 is where these values come from.

# System: NCI/ADR-RES
# test: Antiproliferative activity against human NCI/ADR-RES cells at 20 uM after 72 hrs by MTT assay
# Format: functional
endpoint: inhibition at 20 µM (%)
Your answer should be a plain number; it is taken to be in %.

# mol, system, inhibition at 20 µM / %
data = [
    ("Cc1ccc(S(=O)(=O)Oc2ccc(NCc3ccc(Cl)cc3)c3c2C(=O)c2ccccc2C3=O)cc1", "NCI/ADR-RES", 80.4),
]

QUERY: Which inhibition at 20 µM is reported for this compound? Cc1ccc(S(=O)(=O)Oc2ccc(OCCOCCO)c3c2C(=O)c2ccccc2C3=O)cc1
RESULT: 15.3

QUERY: Next compound: COc1cccc2c1C(=O)c1c(O)c3c(c(O)c1C2=O)C[C@@](O)(C(=O)CO)C[C@@H]3O[C@H]1C[C@H](N)[C@H](O)[C@H](C)O1
RESULT: 41

QUERY: Next compound: Cc1ccc(S(=O)(=O)Oc2ccc(OCCOCCOCCO)c3c2C(=O)c2ccccc2C3=O)cc1
RESULT: 20.4
